tested on: OVCAR-3 ovarian; assay: NCI-60 one-dose screen, 48 h; conditions: 10 µM
This is part of a sample that, as a whole, favours compounds with a hit. Of some 83,000 tested, about 20% had one in any assay. The source made the active and inactive calls. How the source made its calls: active means growth percent below 10; inactive means the rest.
Possible outcomes: 1.0 for active, 0.0 for inactive

                                    compound  assigned_class
 0  Oc1[nH]c2ccccc2c1/C=c1/cc2c(c(-c3ccc(C(F)(F)F)cc3)n1)=Nc1ccccc1-2             0.0
 1  Cc1ccc(/C(CS(=O)(=O)c2ccc(C)cc2)=N\O)cc1             0.0
 2           Cc1[nH]nc2c(=S)[nH]c(=O)[nH]c12             0.0
 3  COc1cc(CSc2nc3ccc(Cl)cc3c(=O)n2Cc2ccccc2)cc(OC)c1OC             1.0
 4  Cc1nn2c(/C=C3/C(=O)Nc4ccc(Cl)cc43)c(-c3ccccc3)nc2s1             1.0
 5  CC(=O)n1nc(C(=O)OC(C)(C)C)c2cc(F)c(F)cc21             0.0
 6  O=C(Nc1ccc(OCc2nnc(-c3ccccc3)o2)c(F)c1)Nc1ccc(Cl)c(Cl)c1             0.0
 7  O=[N+]([O-])C1CC2C=CC1C2 (stereo unspecified)             0.0
 8      S=c1c2ncccc2c(-c2ccccn2)nn1Cc1ccccn1             0.0
 9  CCCCNC(=O)Oc1ccc(/C(=C(\C)c2ccc(OC)cc2)c2ccc(OCCN3CCCCC3)cc2)cc1             0.0
10    O=C(Nc1cccc([N+](=O)[O-])c1)NN1CCCCCC1             0.0

* * *

tested on: HCT-15 colon; experiment: NCI-60 one-dose screen, 48 h (100 = growth as untreated, 0 = no growth, -100 = all killed); settings: 10 µM
About 83,000 compounds went through this panel and 20% of them were active in at least one assay; those are over-represented in the sample as a whole.
Catalogue of compounds with associated growth
Measurement Kind: growth (%)

>>> print(df.to_string())
                                    compound  readout_unit  test_value
 0  C/C(=N/NC(=O)c1sc(=S)n(C)c1N)c1cc2cc(Cl)ccc2o1             %        92.6
 1  CC(=O)OC1Oc2ccccc2-c2oc(=O)c(-c3ccc(F)cc3)cc21 (stereo not drawn)             %        95.8
 2          CCc1ccc(Nc2cc(C)nc3nc(C)nn23)cc1             %       -3.95
 3  COc1cc(-c2n/c(=C\c3c(O)[nH]c4ccccc34)cc3c2=Nc2ccccc2-3)cc(OC)c1OC             %        14.3
 4      S=c1c2ncccc2c(-c2ccccn2)nn1Cc1ccccn1             %        98.9
 5  CCc1ccc(-c2nnc(COc3ccc(-c4nc5ccc(C)cc5[nH]4)cc3OC)o2)cc1             %        21.9
 6                        Oc1cc(O)c(Br)cc1Br             %         101
 7    Cc1ccc(C)c2c1sc1nc3n[nH]c(N)c3c(=N)n12             %         102
 8                   C/C(=N\NC(N)=S)C(C)(C)O             %         101
 9          O=C(NCCc1nccs1)c1cnc2c(S)cccc2c1             %        17.6
10  O=C(Nc1cccc(-c2nc3ccccc3[nH]2)c1)c1cccc(NC(=O)c2ccco2)c1             %        50.9
11  Cc1ccc([P+](Cc2ccccc2)(c2ccccc2)c2ccccc2)cc1             %        87.4
12  NC1CCC(Nc2nc(NCc3ccc(-c4ccccc4O)nc3)c3ncn(C4CCCC4)c3n2)CC1 (stereo not drawn)             %       -4.18
13  COC(=O)[C@]12CC[C@@H](C)[C@H](C)[C@@H]1C1=CC[C@@H]3[C@@]4(C)CC(=O)[C@H](O)[C@@](C)(CO)[C@@H]4C(=O)C[C@@]3(C)[C@]1(C)CC2             %       -15.1
14     CCOCC[P+](c1ccccc1)(c1ccccc1)c1ccccc1             %        98.8
15  CS(=O)(=O)Nc1ccc(OCc2nnc(-c3ccc(Cl)cc3)o2)c(F)c1             %          88
16  COc1ccc(-c2nc(SCC(=O)c3ccc(Br)cc3)[nH]c(=O)c2C#N)cc1             %         112
17     CCC1(C)OC(=O)NC1=O (stereo not drawn)             %         100
18  CC1(C)CC(=O)c2c(nc3ccc(Cl)cc3c2-c2ccccc2)C1             %        81.3
19           Nc1cc2c(cc1Cl)-c1ccc(Cl)cc1C2=O             %        99.7
20  Cc1nc2scc(-c3ccc(Cl)cc3)n2c(=O)c1CCN1CCOCC1             %         105
21  O=C1NN(c2ccccc2)C(c2cccnc2)=N/C1=C\c1cccnc1             %        93.9
22        COc1ccc2nc(C)cc(Nc3ccc(Cl)cc3)c2c1             %        99.1
23  NC1CCC(Nc2nc(NCc3cc(Cl)ccc3O)c3ncn(C4CCCC4)c3n2)CC1 (stereo not drawn)             %       -10.1
24  COC(=O)[C@]12CC[C@@H](C)[C@H](C)[C@@H]1C1=CC[C@@H]3[C@@]4(C)C/C(=N\O)[C@H](O)[C@@]5(C)COC(=C45)C[C@@]3(C)[C@]1(C)CC2             %       -92.7
25       CCOC(=O)c1sc(Nc2ncccn2)nc1-c1ccccn1             %        50.8
26       CC(=O)Nc1ccc(Sc2ccc(NC(C)=O)cc2)cc1             %        98.9
27                 CCCCCCCCCCCC(=O)NCCCN(C)C             %        93.8
28             [O-]c1c[n+](-c2ccc(Cl)cc2)no1             %        99.4
29  C[C@]12CC[C@H]3[C@@H](CC=C4C[C@@H](O)CC[C@@]43C)[C@@H]1CC[C@@H]2C(=O)C/C=N/O             %        86.4
30  Cc1ccc(C)c(S(=O)(=O)NC2c3ccccc3Oc3ccccc32)c1             %          94
31  COc1cc(C2C(C#N)=C(c3c[nH]c4ccccc34)Nc3nc(N)[nH]c(=O)c32)cc(OC)c1OC (stereo not drawn)             %         105
32  CCOc1nc(-c2ccccc2)cc2c(O)c(C(=O)NCCCO)[nH]c(=O)c12             %         102
33  Oc1ccc(Cn2cc3c(c2-c2ccccc2)CCc2cnoc2-3)cc1             %         100
34  O=C(N/N=c1/ccoc2cccnc12)N1CCN(c2ncccn2)CC1             %        24.9
35  COc1cc(/C=C2\C(=O)Nc3cc(C)c(O)cc32)cc(OC)c1OC             %        33.7
36  COc1cc(CSc2nc3ccc(Cl)cc3c(=O)n2-c2ccccc2)cc(OC)c1OC             %        52.5
37  Cc1cc2cc3c(=O)[nH]c(=O)cc-3n(CC(O)C(O)C(O)CO)c2cc1C (stereo not drawn)             %         105
38  Cc1ccc(S(=O)(=O)Nc2cccc3[nH]c(C(F)(F)F)nc23)cc1             %        28.3
39                O=C(NCCCl)c1cc(Cl)cc(Cl)c1             %        97.1
40  COc1ccc(-c2csc(-c3cc(Cl)cc(Cl)c3Cl)n2)cc1             %        89.2
41  COc1ccc(-c2nsc3c2NC(=O)CC3c2ccc(Cl)cc2)cc1 (stereo not drawn)             %        86.3
42  O=C(NCc1cn(Cc2cccc(Oc3ccccc3)c2)nn1)c1cccnc1Nc1ccccc1             %        30.7
